Attribute: IC50
Test Target: Somatostatin receptor
Method: In vitro binding affinity of [111In]DTPA-[Y3]-octreotate to somatostatin receptor in the rat pancreatic tumor cell line, […]
Property Label: IC50 (nM)

{"Molecule": "C[C@@H](O)[C@H](NC(=O)[C@H]1CSSC[C@H](NC(=O)[C@@H](Cc2ccccc2)NC(=O)C(CCCC/N=C(/S)Nc2ccc3c(c2)C(=O)OC32c3ccc(O)cc3Oc3cc(O)ccc32)NC(=O)CN2CCN(CC(=O)O)CCN(CC(=O)O)CCN(CC(=O)O)CC2)C(=O)N[C@@H](Cc2ccc(O)cc2)C(=O)N[C@H](Cc2c[nH]c3ccccc23)C(=O)N[C@@H](CCCCN)C(=O)N[C@H]([C@@H](C)O)C(=O)N1)C(=O)O (stereo partly drawn)", "Test Target": "Somatostatin receptor", "Property Label": "IC50", "Output Unit": "nM", "Test Result": 10.3}
{"Molecule": "C[C@@H](O)[C@@H](CO)NC(=O)[C@H]1CSSC[C@H](NC(=O)[C@H](N)Cc2ccccc2)C(=O)N[C@@H](Cc2ccc(O)cc2)C(=O)N[C@H](Cc2c[nH]c3ccccc23)C(=O)N[C@@H](CCCCN)C(=O)N[C@H]([C@@H](C)O)C(=O)N1", "Test Target": "Somatostatin receptor", "Property Label": "IC50", "Output Unit": "nM", "Test Result": 0.4}
{"Molecule": "C[C@@H](O)[C@H](NC(=O)[C@H]1CSSC[C@H](NC(=O)[C@H](N)Cc2ccccc2)C(=O)N[C@@H](Cc2ccc(O)cc2)C(=O)N[C@H](Cc2c[nH]c3ccccc23)C(=O)N[C@@H](CCCCN)C(=O)N[C@H]([C@@H](C)O)C(=O)N1)C(=O)O", "Test Target": "Somatostatin receptor", "Property Label": "IC50", "Output Unit": "nM", "Test Result": 0.6}

###

Test Target: Somatostatin receptor
Method: In vitro binding affinity of [111In]DTPA-[Y3]-octreotate to somatostatin receptor in the rat pancreatic tumor cell line, […]

{"Molecule": "C[C@@H](O)[C@H](NC(=O)[C@H]1CSSC[C@H](NC(=O)[C@@H](Cc2ccccc2)NC(=O)C(CCCCN)/N=C(\\S)Nc2ccc3c(c2)C(=O)OC32c3ccc(O)cc3Oc3cc(O)ccc32)C(=O)N[C@@H](Cc2ccc(O)cc2)C(=O)N[C@H](Cc2c[nH]c3ccccc23)C(=O)N[C@@H](CCCCN)C(=O)N[C@H]([C@@H](C)O)C(=O)N1)C(=O)O (stereo partly drawn)", "Qualifying Sign": "=", "IC50 / µM": 0.0064}
{"Molecule": "C[C@@H](O)[C@H](NC(=O)[C@H]1CSSC[C@H](NC(=O)[C@@H](Cc2ccccc2)NC(=O)CN(CCN(CCN(CC(=O)O)CC(=O)O)CC(=O)O)CC(=O)O)C(=O)N[C@@H](Cc2ccc(O)cc2)C(=O)N[C@H](Cc2c[nH]c3ccccc23)C(=O)N[C@@H](CCCCN)C(=O)N[C@H]([C@@H](C)O)C(=O)N1)C(=O)O", "Qualifying Sign": "=", "IC50 / µM": 0.0019}
{"Molecule": "C[C@@H](O)[C@H](NC(=O)[C@H]1CSSC[C@H](NC(=O)[C@@H](Cc2ccccc2)/N=C(/S)Nc2ccc3c(c2)C(=O)OC32c3ccc(O)cc3Oc3cc(O)ccc32)C(=O)N[C@@H](Cc2ccc(O)cc2)C(=O)N[C@H](Cc2c[nH]c3ccccc23)C(=O)N[C@@H](CCCCN)C(=O)N[C@H]([C@@H](C)O)C(=O)N1)C(=O)O", "Qualifying Sign": "=", "IC50 / µM": 0.0099}
{"Molecule": "C[C@@H](O)[C@H](NC(=O)[C@H]1CSSC[C@H](NC(=O)[C@@H](Cc2ccccc2)NC(=O)CNC(=O)[C@H](CO)NC(=O)CNC(=S)Nc2ccc3c(c2)C(=O)OC32c3ccc(O)cc3Oc3cc(O)ccc32)C(=O)N[C@@H](Cc2ccc(O)cc2)C(=O)N[C@H](Cc2c[nH]c3ccccc23)C(=O)N[C@@H](CCCCN)C(=O)N[C@H]([C@@H](C)O)C(=O)N1)C(=O)O", "Qualifying Sign": "=", "IC50 / µM": 0.2852}
{"Molecule": "C[C@@H](O)[C@H](NC(=O)[C@H]1CSSC[C@H](NC(=O)[C@@H](Cc2ccccc2)NC(=O)C(CCCC/N=C(\\S)Nc2ccc3c(c2)C(=O)OC32c3ccc(O)cc3Oc3cc(O)ccc32)NC(=O)CN(CCN(CCN(CC(=O)O)CC(=O)O)CC(=O)O)CC(=O)O)C(=O)N[C@@H](Cc2ccc(O)cc2)C(=O)N[C@H](Cc2c[nH]c3ccccc23)C(=O)N[C@@H](CCCCN)C(=O)N[C@H]([C@@H](C)O)C(=O)N1)C(=O)O (stereo partly drawn)", "Qualifying Sign": "=", "IC50 / µM": 0.0103}
{"Molecule": "C[C@@H](O)[C@H](NC(=O)[C@H]1CSSC[C@H](NC(=O)[C@@H](Cc2ccccc2)NC(=O)C(N)CCCC/N=C(\\S)Nc2ccc3c(c2)C(=O)OC32c3ccc(O)cc3Oc3cc(O)ccc32)C(=O)N[C@@H](Cc2ccc(O)cc2)C(=O)N[C@H](Cc2c[nH]c3ccccc23)C(=O)N[C@@H](CCCCN)C(=O)N[C@H]([C@@H](C)O)C(=O)N1)C(=O)O (stereo partly drawn)", "Qualifying Sign": "=", "IC50 / µM": 0.1878}
{"Molecule": "C[C@@H](O)[C@H](NC(=O)[C@H]1CSSC[C@H](NC(=O)[C@@H](Cc2ccccc2)NC(=O)CC/N=C(\\S)Nc2ccc3c(c2)C(=O)OC32c3ccc(O)cc3Oc3cc(O)ccc32)C(=O)N[C@@H](Cc2ccc(O)cc2)C(=O)N[C@H](Cc2c[nH]c3ccccc23)C(=O)N[C@@H](CCCCN)C(=O)N[C@H]([C@@H](C)O)C(=O)N1)C(=O)O", "Qualifying Sign": ">", "IC50 / µM": 1}
{"Molecule": "C[C@@H](O)[C@H](NC(=O)[C@H]1CSSC[C@H](NC(=O)[C@@H](Cc2ccccc2)NC(=O)C(CCCCNC(=O)CN(CCN(CCN(CC(=O)O)CC(=O)O)CC(=O)O)CC(=O)O)/N=C(\\S)Nc2ccc3c(c2)C(=O)OC32c3ccc(O)cc3Oc3cc(O)ccc32)C(=O)N[C@@H](Cc2ccc(O)cc2)C(=O)N[C@H](Cc2c[nH]c3ccccc23)C(=O)N[C@@H](CCCCN)C(=O)N[C@H]([C@@H](C)O)C(=O)N1)C(=O)O (stereo partly drawn)", "Qualifying Sign": "=", "IC50 / µM": 0.0713}
